These data points were gathered from the supplement of paper PMC13380429.

inhibition of SARS-CoV-2 cytopathic effect listing for selected compounds.
test system: Vero E6 infected with SARS-CoV-2; experiment: inhibition of SARS-CoV-2 cytopathic effect; higher = more antiviral protection, active = above 15; conditions: 8.33 nM; 48 h

Completed entries (count: 2):
Compound: COCC[n+]1c2c(n(Cc3cnccn3)c1C)C(=O)c1ccccc1C2=O
Result Value: 4.83% (inactive)
//
Compound: COc1ccsc1CNCC[C@@]1(c2ccccn2)CCOC2(CCCC2)C1
Result Value: 3.9% (inactive)

State its inhibition of SARS-CoV-2 cytopathic effect on Vero E6 infected with SARS-CoV-2: CC(OC(=O)NCC1(CC(=O)O)CCCCC1)OC(=O)C(C)C (stereo not given) -8.92% (inactive)

State its inhibition of SARS-CoV-2 cytopathic effect on Vero E6 infected with SARS-CoV-2: CSCC1CN(/N=C/c2ccc([N+](=O)[O-])o2)C(=O)O1 (stereo not given) -0.35% (inactive)

State its inhibition of SARS-CoV-2 cytopathic effect on Vero E6 infected with SARS-CoV-2: O=C1CCC2CCC(=O)N12 1.21% (inactive)

State its inhibition of SARS-CoV-2 cytopathic effect on Vero E6 infected with SARS-CoV-2: C[C@H]1CCC/C=C/[C@@H]2C[C@H](O)C[C@H]2[C@H](O)/C=C/C(=O)O1 2.51% (inactive)

State its inhibition of SARS-CoV-2 cytopathic effect on Vero E6 infected with SARS-CoV-2: c1cnc2c([O][Ga]([O]c3cccc4cccnc34)[O]c3cccc4cccnc34)cccc2c1 [gallium-triquinolin-8-olate] 1.56% (inactive)

* * *

test system: Vero E6 infected with SARS-CoV-2; assay: SARS-CoV-2 infection rate relative to infected DMSO; higher = more infection, active = 60 or less; conditions: 24 h
Reply using exactly one outcome from active, inactive

Would you please look over these solved cases?
Compound: Cc1cc(O)ccc1Cl [chlorocresol] (10 µM)
Test Target: Vero E6 infected with SARS-CoV-2
Category: inactive

Compound: CC(NC(=O)c1ccccc1/N=C/c1c(O)ccc2ccccc12)c1ccccc1 (stereo unspecified) [sirtinol] (10 µM)
Test Target: Vero E6 infected with SARS-CoV-2
Category: inactive

Which outcome was entered for the compound NC(=O)C1=CN([C@@H]2O[C@H](COP(=O)(O)OP(=O)(O)OC[C@H]3O[C@@H](n4cnc5c(N)ncnc54)[C@H](OP(=O)(O)O)[C@@H]3O)[C@@H](O)[C@H]2O)C=CC1 (10 µM) in this test? inactive

* * *

test system: Vero E6 infected with SARS-CoV-2; assay: morphology score (similarity to uninfected cells); higher = more like uninfected cells; settings: 24 h
morphology score listing for selected molecules.
The reply should be a number, written without any unit.

Molecule: O=C(O)COc1nn(Cc2ccccc2)c2ccccc12 [bendazac] (10 µM)
morphology score: -0.0178
//
Molecule: O=C(CBr)N1CC([N+](=O)[O-])([N+](=O)[O-])C1 (10 µM)
morphology score: 0.0284
//
Molecule: CSCC[C@H](NC(=O)[C@H](CC(C)C)NC(=O)[C@@H](Cc1c[nH]c2ccccc12)NC(=O)[C@H](Cc1ccccc1)N(C)C(=O)[C@@H](Cc1c[nH]c2ccccc12)NC(=O)[C@@H](N)CCCNC(=N)N)C(N)=O [antagonist-g] (10 µM)
morphology score: -0.124

State its morphology score on Vero E6 infected with SARS-CoV-2: NS(=O)(=O)c1ccc(NC(=O)Nc2ccc(F)cc2)cc1 (10 µM) 0.0694

State its morphology score on Vero E6 infected with SARS-CoV-2: COCCOCCOc1ccc(C2=N[C@@](C)(C(=O)O)CS2)c(O)c1 (10 µM) 0.128

State its morphology score on Vero E6 infected with SARS-CoV-2: COc1cc(NS(=O)(=O)c2ccc(N)cc2)nc(OC)n1 [sulphadimethoxine] (10 µM) -0.00223

State its morphology score on Vero E6 infected with SARS-CoV-2: NC(=O)NC1NC(=O)NC1=O (configuration not stated) [allantoin] (10 µM) -0.0426

* * *

tested on: Vero E6 infected with SARS-CoV-2; experiment: inhibition of SARS-CoV-2 cytopathic effect; higher = more antiviral protection, active = above 15; conditions: 833.33 nM; 48 h
Quantity Kind: inhibition of SARS-CoV-2 cytopathic effect (%)
Note: unit % is implicit; provide only the numeric part.

Completed entries (count: 8):
Compound: O=C(c1ccccc1)C(O)c1ccccc1 (stereo not given) [benzoin]
Result Value: 1.45
//
Compound: Oc1c(CN2CCCC2)cc(COCc2ccccc2)c2cccnc12
Result Value: -0.42
//
Compound: COc1ccc(COc2cc3oc(=O)c4cc(C(C)O)ccc4c3cc2OC)cc1 (stereo not given) [palomid-529]
Result Value: -0.05
//
Compound: CCN1CCCC(OC(=O)C(c2ccccc2)c2ccccc2)C1 (stereo not given) [piperidolate]
Result Value: -6.63
//
Compound: FC(F)OC(F)(F)C(F)Cl (stereo not given) [enflurane]
Result Value: -3.51
//
Compound: CN1C2CCCC1CC(NC(=O)c1nn(C)c3ccccc13)C2 (stereo not given) [granisetron]
Result Value: -2.63
//
Compound: Cc1ccccc1N1CCN(CCc2nnc3n2CCCC3)CC1 [dapiprazole]
Result Value: -0.37
//
Compound: CCCCCOc1ccc(-c2ccc(-c3ccc(C(=O)N[C@H]4C[C@@H](O)[C@@H](O)NC(=O)[C@@H]5[C@@H](O)[C@@H](C)CN5C(=O)[C@H]([C@@H](C)O)NC(=O)[C@H]([C@H](O)[C@@H](O)c5ccc(O)cc5)NC(=O)[C@@H]5C[C@@H](O)CN5C(=O)[C@H]([C@@H](C)O)NC4=O)cc3)cc2)cc1 [anidulafungin]
Result Value: 0.77

Given the entry O=C(/C=C\n1cnc(-c2cc(C(F)(F)F)cc(C(F)(F)F)c2)n1)N1CC(F)(F)C1 , report its measured inhibition of SARS-CoV-2 cytopathic effect. -7.74

Given the entry O=c1c(-c2ccc(O)cc2)coc2cc(O)cc(O)c12 [genistein] , report its measured inhibition of SARS-CoV-2 cytopathic effect. 3.3

Given the entry CCc1cccc(CC)c1NC(=O)N1Cc2[nH]nc(NC(=O)c3ccc(N4CCN(C)CC4)cc3)c2C1 , report its measured inhibition of SARS-CoV-2 cytopathic effect. 1.38

Given the entry O=C1c2cccc(O)c2C(=O)c2c(O)cccc21 [dantron] , report its measured inhibition of SARS-CoV-2 cytopathic effect. -0.79

Given the entry CC(C)[C@H](N)C(=O)OCC(CO)OCn1cnc2c(=O)nc(N)[nH]c21 (mixture of isomers) [valganciclovir] , report its measured inhibition of SARS-CoV-2 cytopathic effect. 8.72

Given the entry N#CCC1(n2cc(-c3ncnc4[nH]ccc34)cn2)CN(C2CCN(C(=O)c3ccnc(C(F)(F)F)c3F)CC2)C1 [itacitinib] , report its measured inhibition of SARS-CoV-2 cytopathic effect. -0.18

Given the entry N#C/C(=C1/SCC(c2ccccc2Cl)S1)n1ccnc1 (stereo not given) [lanoconazole] , report its measured inhibition of SARS-CoV-2 cytopathic effect. 0.83

Given the entry CC(=O)c1ccc2c(c1)N(CCCN1CCN(CCO)CC1)c1ccccc1S2 [acetophenazine] , report its measured inhibition of SARS-CoV-2 cytopathic effect. 2.47

Given the entry c1cc(-c2sc(-c3ccncc3)c(-c3ccncc3)c2-c2ccncc2)ccn1 , report its measured inhibition of SARS-CoV-2 cytopathic effect. -4.39

Given the entry CC(C)NCC(O)c1cc(O)cc(O)c1 (stereo not given) [metaproterenol] , report its measured inhibition of SARS-CoV-2 cytopathic effect. -1.4

Given the entry CCOC(=O)[C@H](CCc1ccccc1)N[C@@H](C)C(=O)N1CCC[C@H]1C(=O)O [enalapril] , report its measured inhibition of SARS-CoV-2 cytopathic effect. 2.42

Given the entry CCCOCCn1c(=O)c(N2CCN(CCO)CC2)nc2cnc(-c3ccc(OC)nc3)cc21 , report its measured inhibition of SARS-CoV-2 cytopathic effect. -1.66

Given the entry CC(=O)Nc1ccc(S(=O)(=O)Nc2ccc([N+](=O)[O-])cc2)cc1 [sulfanitran] , report its measured inhibition of SARS-CoV-2 cytopathic effect. 0.27

Given the entry c1ccc2c(CCNc3ccc(Nc4ccncc4)cc3)c[nH]c2c1 [serdemetan] , report its measured inhibition of SARS-CoV-2 cytopathic effect. -0.64

Given the entry COc1cc(OC)c(NC(=O)Nc2cc(C)on2)cc1Cl , report its measured inhibition of SARS-CoV-2 cytopathic effect. 4.04

* * *

inhibition of SARS-CoV-2 cytopathic effect listing for selected compounds.
system: Vero E6 infected with SARS-CoV-2; assay: inhibition of SARS-CoV-2 cytopathic effect; higher = more antiviral protection, active = above 15; conditions: 8.33 nM; 48 h
Note: unit % is implicit; provide only the numeric part.

Completed entries (count: 4):
Structure Smiles String: COc1ccc(NC(=O)c2ccc(-c3ccc(-c4noc(C)n4)cc3C)cc2)cc1OCCN(C)C
Result Value: -0.62
//
Structure Smiles String: C[C@]12CCC(=O)C=C1[C@@H]1C[C@@H]1[C@H]1[C@@H]3[C@@H]4C[C@@H]4[C@@]4(CCC(=O)O4)[C@@]3(C)CC[C@@H]12
Result Value: -1.07
//
Structure Smiles String: C1=C2CCCN[C@H]2[C@@H]2C[C@H]1[C@H]1CCCCN1C2
Result Value: 2.25
//
Structure Smiles String: C=CC(=O)Nc1cc2c(Nc3ccc(F)c(Cl)c3)ncnc2cc1OCCCN1CCOCC1
Result Value: -2.25

# input for lookup
Given the entry O=C(O)CCC(=O)C(=O)O , report its measured inhibition of SARS-CoV-2 cytopathic effect. -0.14
